Source listed as patent US5466716A.

viability at 10 min, 15 µM listing for selected molecules.
# ASSAY METHOD TEXT: neutrophil viability (trypan blue exclusion)
# Format: cell-based, human
# EXPERIMENTAL CONDITIONS: neutrophils; Table III, 15 μM, control 94; read-out: Viability

STRUCTURE SMILES STRING | viability at 10 min, 15 µM [%]
CCCCCCCCCCCCC/C=C/[C@@H](O)[C@@H](N)CO | 87
CCCCCCCCCCCCC/C=C/[C@@H](O)[C@H](CO)[N+](C)(C)C | 97

###

# ASSAY METHOD TEXT: neutrophil viability (trypan blue exclusion)
# Type: cell-based, human
# EXPERIMENTAL CONDITIONS: neutrophils; Table V, 45 μM, 37° C., 10 min
// reported viability at 10 min, 45 µM per item
QUANTITY MEASURED: viability at 10 min, 45 µM (%)

STRUCTURE SMILES STRING | VALUE UNITS | REPORTED VALUE
CCCCCCCCCCCCC/C=C/[C@@H](O)[C@@H](N)CO | % | 5
CCCCCCCCCCCCC/C=C/[C@@H](O)[C@H](CO)N(C)C | % | 0
CCCCCCCCCCCCC/C=C/[C@@H](O)[C@H](CO)[N+](C)(C)C | % | 63
